target: recombinant á1â1γ1 heterotrimer (Rattus norvegicus, UniProt P80385); test: AMPK heterotrimer kinase assay, activation by AMP; conditions: immunoprecipitated from CCL13 cells, slow lysis; read-out: A0.5
Sequence (P80385 whole entry): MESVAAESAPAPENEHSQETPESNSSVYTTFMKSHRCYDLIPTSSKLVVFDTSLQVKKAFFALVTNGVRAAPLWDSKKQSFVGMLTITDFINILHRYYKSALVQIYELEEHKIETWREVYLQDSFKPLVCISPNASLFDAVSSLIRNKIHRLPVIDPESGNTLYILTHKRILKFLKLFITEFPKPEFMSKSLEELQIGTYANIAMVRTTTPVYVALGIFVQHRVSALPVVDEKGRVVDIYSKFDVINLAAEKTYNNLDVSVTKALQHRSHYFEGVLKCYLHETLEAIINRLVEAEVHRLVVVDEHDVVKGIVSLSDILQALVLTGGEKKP
Sequence (P54645 whole entry partner): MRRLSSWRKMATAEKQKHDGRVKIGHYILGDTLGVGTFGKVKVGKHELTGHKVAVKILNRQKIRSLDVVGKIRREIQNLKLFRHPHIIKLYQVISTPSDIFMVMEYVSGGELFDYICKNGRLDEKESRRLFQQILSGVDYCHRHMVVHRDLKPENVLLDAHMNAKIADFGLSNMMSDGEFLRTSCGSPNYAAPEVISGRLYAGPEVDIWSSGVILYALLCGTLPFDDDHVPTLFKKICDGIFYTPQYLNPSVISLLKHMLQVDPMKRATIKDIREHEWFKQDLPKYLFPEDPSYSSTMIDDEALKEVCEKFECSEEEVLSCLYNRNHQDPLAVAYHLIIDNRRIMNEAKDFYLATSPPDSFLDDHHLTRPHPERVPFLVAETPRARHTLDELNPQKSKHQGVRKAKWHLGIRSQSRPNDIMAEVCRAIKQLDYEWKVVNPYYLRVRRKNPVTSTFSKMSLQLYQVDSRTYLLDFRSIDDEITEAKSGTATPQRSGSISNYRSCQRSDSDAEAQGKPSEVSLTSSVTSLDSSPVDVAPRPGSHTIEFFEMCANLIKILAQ
Sequence (P80386 whole entry partner): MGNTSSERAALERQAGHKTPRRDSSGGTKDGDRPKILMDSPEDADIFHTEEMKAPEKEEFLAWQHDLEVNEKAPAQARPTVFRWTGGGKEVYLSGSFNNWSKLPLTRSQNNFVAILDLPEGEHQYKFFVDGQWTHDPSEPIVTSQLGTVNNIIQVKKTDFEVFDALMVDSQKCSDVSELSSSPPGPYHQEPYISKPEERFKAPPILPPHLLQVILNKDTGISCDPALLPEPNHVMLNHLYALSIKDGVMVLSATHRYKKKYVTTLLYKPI
Measured Property: pEC50
The read-out pEC50 is expressed as -log10 of concentration in moles per litre.

Endpoint output: pEC50 of Nc1ncnc2c1ncn2[C@@H]1O[C@H](COP(=O)(O)O)[C@@H](O)[C@H]1O [AMP, adenosine monophosphate] . Value?
4.89

====

molecular target: AMPK-γ2 CBS1-4 (T400N) (Homo sapiens, UniProt Q9UGJ0, T400N); construct: all four CBS domains (CBS1-4, residues 274-569); test: Filter binding assay, GST-CBS domain fusion; details: two site Hill plot model; read-out: B0.5
Sequence (Q9UGJ0 274-569 T400N): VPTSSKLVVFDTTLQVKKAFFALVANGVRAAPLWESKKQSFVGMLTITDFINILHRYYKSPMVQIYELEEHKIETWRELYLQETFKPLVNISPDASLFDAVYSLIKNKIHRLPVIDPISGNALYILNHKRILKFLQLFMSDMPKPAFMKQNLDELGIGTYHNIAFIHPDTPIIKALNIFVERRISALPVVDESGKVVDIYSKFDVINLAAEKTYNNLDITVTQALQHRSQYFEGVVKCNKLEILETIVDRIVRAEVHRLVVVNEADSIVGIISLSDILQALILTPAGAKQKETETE
Listing of entries alongside the reported pKd.
// field semantics: pKd = negative decimal log of concentration (mol/L)

Compound | pKd
Nc1ncnc2c1ncn2[C@@H]1O[C@H](COP(=O)(O)OP(=O)(O)OP(=O)(O)O)[C@@H](O)[C@H]1O | 2.70

In the following, a different compound is considered.
Data request, read-out pKd, for Nc1ncnc2c1ncn2[C@@H]1O[C@H](COP(=O)(O)O)[C@@H](O)[C@H]1O [AMP, adenosine monophosphate]
2.87

====

Kd values for the compounds below.
molecular target: AMPK-γ1 CBS1-4 (UniProt P80385); construct: B0.5; other: two site Hill plot model; h (Hill coefficient); fused on or other part: GST at the N-terminus (pGEX-KG, glycine spacer); assay: Filter binding assay, GST-CBS domain fusion; details: two site Hill plot model; read-out: B0.5
The reply should contain only the number, in µM.

Compound | Kd, µM
Nc1ncnc2c1ncn2[C@@H]1O[C@H](COP(=O)(O)OP(=O)(O)OP(=O)(O)O)[C@@H](O)[C@H]1O | 119

--- query ---
Please tell me: Kd of Nc1ncnc2c1ncn2[C@@H]1O[C@H](COP(=O)(O)O)[C@@H](O)[C@H]1O [AMP, adenosine monophosphate] , system AMPK-γ1 CBS1-4 (UniProt P80385)?
20

====

molecular target: IMPDH2 Tetramer (R224P) (Homo sapiens, UniProt P12268, R224P); construct: the full-length protein (1-514); His tag (pHAT20 vector); test: Filter binding assay, full-length protein; settings: Hill equation, 4 sites; read-out: B0.5
Sequence (P12268 whole entry R224P): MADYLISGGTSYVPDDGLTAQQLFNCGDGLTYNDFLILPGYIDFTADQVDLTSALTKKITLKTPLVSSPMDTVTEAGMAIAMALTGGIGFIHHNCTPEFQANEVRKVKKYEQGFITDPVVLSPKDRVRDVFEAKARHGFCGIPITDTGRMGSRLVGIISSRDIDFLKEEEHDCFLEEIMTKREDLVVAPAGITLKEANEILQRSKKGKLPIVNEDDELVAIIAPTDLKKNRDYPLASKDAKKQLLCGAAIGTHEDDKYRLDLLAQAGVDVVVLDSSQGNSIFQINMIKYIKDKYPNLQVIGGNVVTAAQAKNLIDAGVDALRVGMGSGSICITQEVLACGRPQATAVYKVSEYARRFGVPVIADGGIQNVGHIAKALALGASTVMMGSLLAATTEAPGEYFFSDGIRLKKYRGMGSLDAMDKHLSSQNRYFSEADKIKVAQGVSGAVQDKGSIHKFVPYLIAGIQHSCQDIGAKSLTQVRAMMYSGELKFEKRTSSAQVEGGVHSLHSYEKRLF
Measured Property: Kd (mM)
// units = mM; emit number, no label

# get_value(readout= Kd, system= IMPDH2 Tetramer (R224P) (Homo sapiens, UniProt P12268, R224P)) for Nc1ncnc2c1ncn2[C@@H]1O[C@H](COP(=O)(O)OP(=O)(O)OP(=O)(O)O)[C@@H](O)[C@H]1O
64

====

Recorded pKd, one value per entry.
Biological target: IMPDH2 CBS1-2 (WT) (Homo sapiens, UniProt P12268)
Construct: DNAs encoding residues 112-232 or the full-length protein (1-514) were amplified; His tag (pHAT20 vector)
Sequence (P12268 112-232): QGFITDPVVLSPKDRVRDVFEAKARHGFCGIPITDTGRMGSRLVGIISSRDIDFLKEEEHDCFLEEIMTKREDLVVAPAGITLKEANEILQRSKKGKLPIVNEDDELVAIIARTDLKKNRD
Assay: Filter binding assay, isolated CBS domain pair
Conditions: single-site model
Text: To examine whether binding of adenine nucleotides is a general function for CBS domains, or is specific to the γ subunits of AMPK, IMP dehydrogenase (IMPDH) was also studied. […] Because the IMPDH2 isoform is ubiquitously expressed and a suitable cDNA to use as a template for PCR was more readily available, DNA encoding the single pair of CBS domains from human IMPDH2 was cloned, an R224P mutation was created and expressed both the wild type and the mutant as His-tagged proteins in E. coli. […]
Would you please state pKd, meaning minus log10 of the concentration in mol/L, as a bare number?

Molecule | pKd
Nc1ncnc2c1ncn2[C@@H]1O[C@H](COP(=O)(O)O)[C@@H](O)[C@H]1O [AMP, adenosine monophosphate] | 3.36

Return pKd measured with IMPDH2 CBS1-2 (WT) (Homo sapiens, UniProt P12268) given this molecule: Nc1ncnc2c1ncn2[C@@H]1O[C@H](COP(=O)(O)OP(=O)(O)OP(=O)(O)O)[C@@H](O)[C@H]1O
4.27
